# System: A. fumigatus CEA10 reference strain
# protocol: Fluconazole potentiator screen: MIC by CLSI microbroth dilution with and without fluconazole
# Type: cell-based, Aspergillus fumigatus
# assay.setup: with 32 μg/ml fluconazole; normoxia; GMM, 18 h, 37 °C
measured.quantity: MIC (ug/mL) (+) Fluc (µg/mL)
Number only, in µg/mL; omit the unit.

May I ask what MIC (ug/mL) (+) Fluc has been recorded for `O=C(c1ccsc1)N1CC[C@@H](Cc2ccc(COc3ccncc3)cc2)C1` ?
1.14

Next: `O=C(c1ccsc1)N1CCC(Cc2cccc(COc3ccncc3)c2)CC1`
19.00

Next: `O=C(c1cscn1)N1CCC(Cc2ccc(COc3ccncc3)cc2)CC1`
3.10

Next: `O=C1c2ccsc2CCN1Cc1ccc(CCOc2ccncc2)cc1`
14.00

Next: O=S(=O)(c1ccccc1F)N1CCC2(CC1)CC(CCOc1ccncc1)CCO2 (stereo not shown)
3.07

Next: COc1ccc(S(=O)(=O)N2CCC3(CC2)CC(CCOc2ccncc2)CCO3)cc1 (stereo not shown)
1.11

Next: `O=C(c1ccsc1)N1CCC(Cc2ccc(COc3cncnc3)cc2)CC1`
27.00

Next: `O=C(c1ccoc1)N1CCC(Cc2ccc(COc3ccncc3)cc2)CC1`
1.88

Next: `O=C(c1ccsc1)N1CCC(Cc2ccc(CCOc3ccncc3)cc2)CC1`
0.60

Next: COc1cccc(S(=O)(=O)N2CCC3(CC2)CC(CCOc2ccncc2)CCO3)c1 (stereo not shown)
2.79

Next: `O=S(=O)(c1cccs1)N1CCC2(CC1)C[C@H](CCOc1ccncc1)CCO2`
0.52

Next: `CN1CCN(Cc2ccc(CC3CCN(S(=O)(=O)c4ccc(F)cc4)CC3)cc2)CC1`
0.45

Next: Cc1ccc(S(=O)(=O)N2CCC3(CC2)CC(CCOc2ccncc2)CCO3)s1 (stereo not shown)
0.21

Next: `O=C(c1ccsc1)N1CCC(c2ccc(COc3ccncc3)cc2)CC1`
0.90

Next: O=C(c1ccsc1)N1CCC(Cc2ccc(CN3CCOCC3)cc2)C1 (stereo not shown)
18.53

Next: `O=S(=O)(c1ccc(F)cc1)N1CCC(Cc2ccc(CN3CCN4CCC[C@H]4C3)cc2)CC1`
1.47

Next: `COc1ccc(C(=O)N2CCC(Cc3ccc(COc4ccncc4)cc3)CC2)cc1`
8.30

Next: O=S(=O)(c1ccc(C(F)(F)F)nc1)N1CCC2(CC1)CC(CCOc1ccncc1)CCO2 (stereo not shown)
0.96

Next: O=S(=O)(c1ccccc1)N1CCC2(CC1)CC(CCOc1ccncc1)CCO2 (stereo not shown)
2.08

Next: `O=C(c1ccsc1)N1CCN(Cc2ccc(-c3ccncc3)cc2)CC1`
0.32

Next: `Cc1ccc(C(=O)N2CCC(Cc3ccc(COc4ccncc4)cc3)CC2)cc1`
0.59

Next: `O=C(c1ccsc1)N1CCC(Cc2ccc(-c3ccncc3)cc2)CC1`
1.13

Next: `O=C(c1csc(Cl)c1)N1CCN(Cc2ccc(CN3CCOCC3)cc2)CC1`
21.00
